Where do the numbers come from? From patent US20080312287A1.

# experimental-system: Rat FTase (Rattus norvegicus, UniProt Q02293+Q04631)
# assay-procedure: Rat farnesyltransferase IC50 determination
# condition-set: concentration decreasing transferase activity twofold
Recorded IC50, one value per entry.
test-readout: IC50

- Cn1cnc(S(=O)(=O)N(CCN(Cc2cncn2C)c2ccc(C#N)cc2)Cc2ccccn2)c1: 43 nM
- Cn1cnc(S(=O)(=O)N(CCN(Cc2cncn2C)c2ccc(C#N)cc2)CC(=O)NC(C)(C)C)c1: > 1000 nM
- Cn1cnc(S(=O)(=O)N(CCN(Cc2cncn2C)c2ccc(C#N)cc2)Cc2ccccc2)c1: 25 nM
- Cn1cnc(S(=O)(=O)N(CCN(Cc2cncn2C)c2ccc(Br)cc2)Cc2ccccn2)c1: 83 nM
- CN(C)c1cccc2c(S(=O)(=O)N(CCN(Cc3cncn3C)c3ccc(C#N)cc3)Cc3ccccc3)cccc12: 180 nM
- Cn1cnc(S(=O)(=O)N(CCN(Cc2cncn2C)c2ccc(C#N)cc2)Cc2ccc(-c3ccccc3)cc2)c1: 880 nM
- Cn1cnc(S(=O)(=O)N(CCN(Cc2cncn2C)c2ccc(C#N)cc2)Cc2ccc(C#N)cc2)c1: 350 nM
